Values compiled from paper PMC3759295.

tested on: CYP1A1 mRNA in primary human hepatocytes; experiment: CYP1A1 mRNA expression in primary human hepatocytes; type: cell-based; conditions: 50 µM
Quick reference for CYP1A1 mRNA fold induction over the vehicle-treated cells, LH46 among some molecules
The answer is to be given in fold; state only the numeric part.

molecule="OC[C@H]1O[C@@H](Oc2cc3c(O)cc(O)cc3[o+]c2-c2ccc(O)c(O)c2)[C@H](O[C@@H]2OC[C@@H](O)[C@H](O)[C@H]2O)[C@@H](O)[C@@H]1O.[Cl-] [CYA-8, cyanidin-3-O-sambubioside chloride]" subjectoftest="CYP1A1 mRNA in primary human hepatocytes" scaleunit=fold resultvalue=1.72

Query: Output CYP1A1 mRNA fold induction over the vehicle-treated cells, LH46 of OC[C@H]1O[C@@H](Oc2cc3c(O)cc(O)cc3[o+]c2-c2ccc(O)c(O)c2)[C@H](O[C@@H]2OC[C@@H](O)[C@H](O)[C@H]2O)[C@@H](O)[C@H]1O.[Cl-] [CYA-9, cyanidin-3-O-lathyroside chloride]
Result: 1.77

Query: Output CYP1A1 mRNA fold induction over the vehicle-treated cells, LH46 of OC[C@H]1O[C@@H](O[C@H]2[C@@H](Oc3cc4c(O)cc(O)cc4[o+]c3-c3ccc(O)c(O)c3)O[C@H](CO)[C@@H](O)[C@@H]2O)[C@H](O)[C@@H](O)[C@@H]1O.[Cl-] [CYA-4, cyanidin-3-O-sophoroside chloride]
Result: 0.28

Query: Output CYP1A1 mRNA fold induction over the vehicle-treated cells, LH46 of Oc1cc(O)c2cc(O[C@@H]3OC[C@H](O)[C@H](O)[C@H]3O)c(-c3ccc(O)c(O)c3)[o+]c2c1.[Cl-] [CYA-5, cyanidin-3-O-arabinoside chloride]
Result: 0.61

Query: Output CYP1A1 mRNA fold induction over the vehicle-treated cells, LH46 of OC[C@H]1O[C@@H](Oc2cc3c(O[C@@H]4O[C@H](CO)[C@@H](O)[C@H](O)[C@H]4O)cc(O)cc3[o+]c2-c2ccc(O)cc2)[C@H](O)[C@@H](O)[C@@H]1O [PEL-1, pelargonidin-3,5-di-O-glucoside chloride]
Result: 2.21

Query: Output CYP1A1 mRNA fold induction over the vehicle-treated cells, LH46 of C[C@@H]1O[C@@H](Oc2cc3c(O)cc(O)cc3[o+]c2-c2ccc(O)c(O)c2)[C@H](O)[C@H](O)[C@H]1O.[Cl-] [CYA-6, cyanidin-3-O-rhamnoside chloride]
Result: 1.36

Query: Output CYP1A1 mRNA fold induction over the vehicle-treated cells, LH46 of C[C@@H]1O[C@@H](OC[C@H]2O[C@@H](Oc3cc4c(O)cc(O)cc4[o+]c3-c3ccc(O)c(O)c3)[C@H](O)[C@@H](O)[C@@H]2O)[C@H](O)[C@H](O)[C@H]1O.[Cl-] [CYA-2, cyanidin-3-O-rutinoside chloride]
Result: 0.91

Query: Output CYP1A1 mRNA fold induction over the vehicle-treated cells, LH46 of OC[C@H]1O[C@@H](Oc2cc3c(O)cc(O)cc3[o+]c2-c2ccc(O)c(O)c2)[C@H](O)[C@@H](O)[C@H]1O.[Cl-] [CYA-7, cyanidin-3-O-galactoside chloride]
Result: 1.85

###

test system: CYP1A1 mRNA; assay: CYP1A1 mRNA expression in primary human hepatocytes; type: cell-based; details: male, human, primary human hepatocytes (culture LH45)
measuredAttribute: fold induction at 24 h, 10 µM
Please reply with the value in numeric form only.

# count of solved cases: 2
molecule="COc1cc(-c2[o+]c3cc(O)cc(O)c3cc2O[C@@H]2O[C@H](CO)[C@@H](O)[C@H](O)[C@H]2O)cc(OC)c1O [MAL-1, malvidin-3-O-glucoside chloride]" resultvalue=1.13
molecule="OC[C@H]1O[C@@H](Oc2cc3c(O[C@@H]4O[C@H](CO)[C@@H](O)[C@H](O)[C@H]4O)cc(O)cc3[o+]c2-c2ccc(O)c(O)c2)[C@H](O)[C@@H](O)[C@@H]1O [CYA-3, cyanidin-3,5-di-O-glucoside chloride]" resultvalue=0.68

Shift focus to the following entry.
Query: Fill in: fold induction at 24 h, 10 µM on CYP1A1 mRNA, entry OC[C@H]1O[C@@H](Oc2cc3c(O)cc(O)cc3[o+]c2-c2ccc(O)c(O)c2)[C@H](O)[C@@H](O)[C@@H]1O [CYA-1, cyanidin-3-O-glucoside chloride]
Result: 1.22
